- target: human thrombin (Homo sapiens)
- Construct: Human α-thrombin (3,000 NIH units/mg); purchased Sigma
- experiment.description: Inhibition of amidolytic activity of human thrombin (fluorogenic, Tos-Gly-Pro-Arg-AMC), Ki
- Assay type: biochemical
- applied.conditions: Table II, various active site inhibitor segments; human thrombin 3.0×10^-11 M; read-out: Ki
reported.endpoint: pKi
Notebook: values listed as pKi are -log10 of the concentration (mol/L).

dansyl-Arg-(L-pipecolic acid)-(12-aminododecanoic acid)-4-aminobutyric acid)-Asp-Phe-Glu-Glu-Ile-Pro-Glu-Glu-Tyr-Leu-Gln-OH [Peptide P447]
7.91

Q: pKi for dansyl-Arg-(D-β-cyclohexylalanine)-(12-aminododecanoic acid)-4-aminobutyric acid)-Asp-Phe-Glu-Glu-Ile-Pro-Glu-Glu-Tyr-Leu-Gln-OH [Peptide P472] ?
A: 7.77

Q: Also need fmoc-Arg-(D-Pipecolic acid)(12-aminododecanoic acid)-4-aminobutyric acid)-Asp-Phe-Glu-Glu-Ile-Pro-Glu-Glu-Tyr-Leu-Gln-OH [Peptide P484] , thanks.
A: 7.83
